Below, each of the molecules is paired with its reported percent control mean + SD: body weight value.
- protocolText: In vivo acute toxicity test of injected ligands in mice
- condition: protocol I, 100 µmol kg^-1 x 10 daily i.p.; study length 11 d
assayReadout: percent control mean + SD: body weight

| molecule | val |
| --- | --- |
| Cn1ccc(C(=O)NCCN(CCNC(=O)c2ccn(C)c(=O)c2O)CCN(CCNC(=O)c2ccn(C)c(=O)c2O)CCNC(=O)c2ccn(C)c(=O)c2O)c(O)c1=O [H(2,2)-Me-3,2-HOPO] | 92 ± 6 percent control |
| Cn1ccc(C(=O)NCCCCCNC(=O)c2ccn(C)c(=O)c2O)c(O)c1=O [5-LI-Me-3,2-HOPO] | 102 ± 5 percent control |
| Cn1ccc(C(=O)NCCOCCNC(=O)c2ccn(C)c(=O)c2O)c(O)c1=O [5-LI-O-Me-3,2-HOPO] | 103 ± 5 percent control |
| Cn1ccc(C(=O)NCCN(CCNC(=O)c2ccn(C)c(=O)c2O)CCNC(=O)c2ccn(C)c(=O)c2O)c(O)c1=O [TREN-Me-3,2-HOPO] | 102 ± 1 percent control |

---

- protocolText: In vivo acute toxicity test of injected ligands in mice
- condition: protocol I, 100 µmol kg^-1 x 10 daily i.p.; study length 21 d
assayReadout: percent control mean + SD: body weight (percent control)

| compound | val |
| --- | --- |
| Cn1ccc(C(=O)NCCOCCNC(=O)c2ccn(C)c(=O)c2O)c(O)c1=O [5-LI-O-Me-3,2-HOPO] | 101 |
| Cn1ccc(C(=O)NCCN(CCNC(=O)c2ccn(C)c(=O)c2O)CCN(CCNC(=O)c2ccn(C)c(=O)c2O)CCNC(=O)c2ccn(C)c(=O)c2O)c(O)c1=O [H(2,2)-Me-3,2-HOPO] | 87 |
| Cn1ccc(C(=O)NCCCCCNC(=O)c2ccn(C)c(=O)c2O)c(O)c1=O [5-LI-Me-3,2-HOPO] | 102 |
| Cn1ccc(C(=O)NCCN(CCNC(=O)c2ccn(C)c(=O)c2O)CCNC(=O)c2ccn(C)c(=O)c2O)c(O)c1=O [TREN-Me-3,2-HOPO] | 106 |

---

- protocolText: In vivo acute toxicity test of injected ligands in mice
- condition: protocol I, 100 µmol kg^-1 x 10 daily i.p.; study length 21 d
assayReadout: percent control mean + SD: plasma urea N (percent control)

| molecule | assayReadout | val |
| --- | --- | --- |
| Cn1ccc(C(=O)NCCCCCNC(=O)c2ccn(C)c(=O)c2O)c(O)c1=O [5-LI-Me-3,2-HOPO] | percent control mean + SD: plasma urea N | 101 |
| Cn1ccc(C(=O)NCCOCCNC(=O)c2ccn(C)c(=O)c2O)c(O)c1=O [5-LI-O-Me-3,2-HOPO] | percent control mean + SD: plasma urea N | 86 |
| Cn1ccc(C(=O)NCCN(CCNC(=O)c2ccn(C)c(=O)c2O)CCNC(=O)c2ccn(C)c(=O)c2O)c(O)c1=O [TREN-Me-3,2-HOPO] | percent control mean + SD: plasma urea N | 120 |
| Cn1ccc(C(=O)NCCN(CCNC(=O)c2ccn(C)c(=O)c2O)CCN(CCNC(=O)c2ccn(C)c(=O)c2O)CCNC(=O)c2ccn(C)c(=O)c2O)c(O)c1=O [H(2,2)-Me-3,2-HOPO] | percent control mean + SD: plasma urea N | 225 |
